EXPERIMENTAL_SYSTEM: T1, Transportin 3 (TNPO3), full-length wild type (human, UniProt Q9Y5L0 1-923)
T1 chain: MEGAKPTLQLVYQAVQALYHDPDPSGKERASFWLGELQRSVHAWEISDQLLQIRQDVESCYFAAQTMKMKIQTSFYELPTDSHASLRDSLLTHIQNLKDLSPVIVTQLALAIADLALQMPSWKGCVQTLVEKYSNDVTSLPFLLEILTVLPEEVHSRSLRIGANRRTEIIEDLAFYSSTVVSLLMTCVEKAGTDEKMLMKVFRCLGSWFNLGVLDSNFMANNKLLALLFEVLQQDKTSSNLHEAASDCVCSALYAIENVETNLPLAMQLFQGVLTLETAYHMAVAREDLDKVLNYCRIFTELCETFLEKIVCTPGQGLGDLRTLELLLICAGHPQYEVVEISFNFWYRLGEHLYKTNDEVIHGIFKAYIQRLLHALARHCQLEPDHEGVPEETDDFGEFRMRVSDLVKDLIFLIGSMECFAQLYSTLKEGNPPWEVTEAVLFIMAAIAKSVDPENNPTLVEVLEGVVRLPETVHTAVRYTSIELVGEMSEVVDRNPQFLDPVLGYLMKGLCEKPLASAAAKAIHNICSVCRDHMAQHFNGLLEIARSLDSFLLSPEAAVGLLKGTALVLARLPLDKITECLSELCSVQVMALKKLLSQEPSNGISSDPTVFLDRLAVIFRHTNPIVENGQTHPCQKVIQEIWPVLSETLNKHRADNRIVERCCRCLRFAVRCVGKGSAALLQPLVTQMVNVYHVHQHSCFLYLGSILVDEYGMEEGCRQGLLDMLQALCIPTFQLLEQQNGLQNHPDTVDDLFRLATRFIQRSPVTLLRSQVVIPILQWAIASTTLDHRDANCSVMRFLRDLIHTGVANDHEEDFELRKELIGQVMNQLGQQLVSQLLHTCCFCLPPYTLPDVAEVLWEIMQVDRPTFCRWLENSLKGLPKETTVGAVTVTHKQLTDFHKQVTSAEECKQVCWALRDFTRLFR
METHOD_SUMMARY: ITC; phosphorylated
Non-standard residues stand in square brackets, D forms with d. No end group written: not given here. pS = N[C@@H](COP(=O)(O)O)C(=O)O
MEASURED_ATTRIBUTE: pKd
Conceptually, pKd converts a concentration in mol/L into minus its log10.

Request: pKd lookup needed for SRDYYSSR[pS]Q[pS]GGY[pS]DRSSGGSYRDSYDSYATHNE (domain or fragment, human, UniProt Q14011 138-172, looked up, also called pCIRBP^RSY; phosphorylated CIRBP^RSY; source: E. coli BL21-(DE3) Star, purified; phosphorylated in vitro with recombinant SRPK1 and ATP overnight, isolated by SEC (Superdex 30 Increase); not shown: His6, N-terminal, cleaved; protein A, N-terminal, cleaved) [Phosphorylated RSY region of CIRBP (138-172), phosphorylated in vitro by SRPK1] , thanks.
Response: 5.60
